Listing of entries alongside the reported Dead/Total.
Test: in vivo
Conditions: single oral dose 40 Mg./Kg., mice
Source text: Data on the acute oral toxicity to mice of various single oral doses of the above compounds and several analogs were obtained by conventional procedures, (Table IX hereinafter).
Structures can show the parent of a compound that is named as a salt.

Consider the worked cases shown below.
> print(dat)
                                   molecule  result
1  Nc1ccc(Br)c(C2CN3CCSC3=N2)c1 (racemic) [R1 =H R4 =Br, dihydrochloride]     2/6
2  CC(C)C(=O)Nc1cccc(C2CN3CCSC3=N2)c1.Cl (centres unmarked)     1/6
3     O=CNc1cccc(C2CN3CCSC3=N2)c1 (racemic)   12/13

Kindly consider the entry below.
What Dead/Total value was documented for this molecule, CCC(=O)Nc1cccc(C2CN3CCSC3=N2)c1 (racemic) ?
4/5

----------
System: Nematospiroides dubius
Assay: Anthelmintic efficacy against N. dubius in mice, single oral dose
Format: in vivo, Nematospiroides dubius (in albino female mice)
Conditions: Heligmosomoides polygyrus, po, as Base; single oral dose, mice; > indicates inactive at dose shown; read-out: Approx. ED50
Structures can show the parent of a compound that is named as a salt.
This listing pairs molecules with measured ED50.
Give the value in mg/kg but do not write mg/kg after it.

> print(dat)
                                   molecule  measurement.label  result
1  Cl.Cl.Nc1cccc(C2CN3CCSC3=N2)c1 (racemic) [dl-m-aminotetramisole]               ED50       1
2  COC(=O)Nc1cccc(C2CN3CCSC3=N2)c1 (centres unmarked) [m-NH-CO--OCH3 l, hydrochloride]               ED50     7.5
3  CC(C)Nc1cccc(C2CN3CCSC3=N2)c1 (stereo not drawn) [m-NH-CH(CH3)2 dl]               ED50       5
4  CC(C)C(=O)Nc1cccc(C2CN3CCSC3=N2)c1.Cl (stereo not drawn) [m-NH--CO--CH(CH3)2 dl]               ED50       3

With those in mind, consider the next molecule.
Need ED50, item CC(C)(C)C(=O)Nc1cccc(C2CN3C=CSC3=N2)c1 (centres unmarked) [5,6-dihydro HN-CO-C(CH3)3]
7.5

----------
Tested on: Nematospiroides dubius
Test: Anthelmintic efficacy against N. dubius in mice, single oral dose
Type: in vivo, Nematospiroides dubius (in albino female mice)
Details: Heligmosomoides polygyrus, po, as Base; single oral dose, mice; > indicates inactive at dose shown; read-out: Approx. ED50
Structures can show the parent of a compound that is named as a salt.
Listed here: items and their measured ED50.
Number only, in mg/kg; omit the unit.

Illustrative cases are given below, each with its answer.
> print(dat)
                                   molecule           system.tested  result
1  COC(=O)Nc1cccc(C2CN3CCSC3=N2)c1 (racemic) [m-NH-CO-OCH3 dl, hydrochloride]  Nematospiroides dubius      15
2  CCCC(=O)Nc1cccc(C2CN3CCSC3=N2)c1 (racemic)  Nematospiroides dubius       2

Then there is this molecule:
If you can, please state the reported ED50 value of CCC(=O)Nc1cccc(C2CN3CCSC3=N2)c1 (racemic) .
2

----------
Measured LD50 values are reported for all entries that follow.
Test: in vivo
Details: mouse, in vivo, po, LD50, mice; adjusted to molar equivalents of tetramisole free base
Description: Data on the acute oral toxicity to mice of various single oral doses of the above compounds and several analogs were obtained by conventional procedures, (Table IX hereinafter).
Structures can show the parent of a compound that is named as a salt.

Here's what some known entries look like.
> print(dat)
                                   compound          result
1  CC(C)C(=O)Nc1cccc(C2CN3CCSC3=N2)c1 (centres unmarked)  60 to 75 mg/kg
2  Nc1cccc(C2CN3CCSC3=N2)c1 (centres unmarked)       ~15 mg/kg
3  CCCC(=O)Nc1cccc(C2CN3CCSC3=N2)c1 (racemic)  30 to 40 mg/kg
4  COC(=O)Nc1cccc(C2CN3CCSC3=N2)c1 (centres unmarked) [m-NH-CO--OCH3 l, hydrochloride]      ~125 mg/kg

Any idea what its LD50 is? The compound is O=C(Nc1cccc(C2CN3CCSC3=N2)c1)c1ccccc1 (racemic) [m-NH-CO dl]
~60 mg/kg
